Data provenance: PubChem BioAssay (NCATS)

# studyTarget: Glucocorticoid receptor (Homo sapiens)
# assaySummary: GR-GFP Redistribution (AID 450)
# experimentalSetup: U2OS GR-GFP nuclear translocation, laser cytometry, 2 h
Calls of active or inactive are those of the source.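 The calls were made as follows: active = compounds whose dose series gives a full or clear partial fitted curve of increased nuclear translocation; inconclusive = weak partial curve or effect only at the top dose; inactive = no dose-dependent translocation response.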
Can you answer with just one of these options? active, inactive

Challenge: Recorded test call requested for O=NN(Cc1ccc(Cl)cc1)[C@@H](C(=O)O)c1ccccc1
Response given: inactive

Challenge: Recorded test call requested for CC(=O)[C@]1(O)CC[C@@H]2[C@H]3C[C@@H](C)C4=CC(=O)CC[C@@]4(C)[C@H]3[C@@H](O)C[C@]21C
Response given: active

Challenge: Recorded test call requested for CCn1cc(C(=O)O)c(=O)c2ccc(Cc3ccccc3)nc21
Response given: inactive

Challenge: Recorded test call requested for NC(=O)c1csc(-c2ccc(CO)o2)n1
Response given: inactive

Challenge: Recorded test call requested for NC1=C(O)C(=O)[C@H](c2c[nH]c3ccc(OCc4ccccc4)cc23)O1
Response given: inactive

Challenge: Recorded test call requested for O=[N+]([O-])c1ccc(C2=Nn3c(nnc3-c3ccc(Cl)cc3)SC2)o1
Response given: inactive

Challenge: Recorded test call requested for C[C@H]1CN(CCO)CCN1c1ccccc1
Response given: inactive

Challenge: Recorded test call requested for O=C(O)[C@@H]1[C@@H](C(=O)NCc2ccccn2)[C@@H]2C=C[C@@H]1O2
Response given: inactive

Challenge: Recorded test call requested for C[N+](C)(C)[C@H](Cc1c[nH]c(=S)[nH]1)C(=O)O
Response given: inactive

Challenge: Recorded test call requested for C#C[C@@]1(O)CC[C@H]2[C@H]3CCC4=Cc5oncc5C[C@]4(C)[C@@H]3CC[C@@]21C
Response given: inactive

Challenge: Recorded test call requested for Cc1cccc(CNc2nc(-c3cccnc3)nc3ccccc23)c1
Response given: inactive

Challenge: Recorded test call requested for O=C(O)NCc1ccccc1 (tested in a mixture with another compound)
Response given: inactive

Challenge: Recorded test call requested for CN1CCN(c2ncc3nc(CCc4ccccc4)c(=O)n(CCC#N)c3n2)CC1
Response given: inactive

Challenge: Recorded test call requested for O=C1c2ccccc2C(=O)c2c1ccc(N1C(=O)c3ccccc3C1=O)c2-c1c(N2C(=O)c3ccccc3C2=O)ccc2c1C(=O)c1ccccc1C2=O
Response given: inactive

Challenge: Recorded test call requested for C[C@@]12CC[C@@H]3[C@@H](CC[C@H]4C[C@@H](O)CC[C@]43C)[C@H]1CC[C@@H]2c1cc(C(F)(F)F)n[nH]1
Response given: inactive

Challenge: Recorded test call requested for O=C(O)CCC(O)=C1S(=O)(=O)OCCOS1(=O)=O
Response given: inactive

Challenge: Recorded test call requested for Cc1cc(C)nc(NC(=O)COc2ccc(Cl)cc2)c1
Response given: inactive

Challenge: Recorded test call requested for CCOC(=O)c1c(O)[nH]c(=O)c(CC)c1C
Response given: inactive

Challenge: Recorded test call requested for Cc1nc(N)nc2ccccc12
Response given: inactive

Challenge: Recorded test call requested for COc1ccc(C(=O)CCN(C)C)c2ccccc12
Response given: inactive

Challenge: Recorded test call requested for C=CCSc1nc2ccccc2c(=O)n1Cc1ccco1
Response given: inactive

Challenge: Recorded test call requested for O=c1c2ccccc2c2ccccc2c(=O)n1-c1cc2c3ccccc3ccc2c2ccccc12
Response given: inactive

Challenge: Recorded test call requested for CC(=O)[C@H]([C@@H](c1ccccc1)N1CCOCC1)N1CCOCC1
Response given: inactive

Challenge: Recorded test call requested for CC(CCC(=O)O)(c1cc(Br)c(O)c(Br)c1)c1cc(Br)c(O)c(Br)c1
Response given: inactive

Challenge: Recorded test call requested for C[N+](C)(C)/N=C\c1ccc(O)c(O)c1
Response given: inactive

Challenge: Recorded test call requested for NCC(=O)Nc1ccccc1
Response given: inactive

Challenge: Recorded test call requested for NC(N)=NCCSSCCN=C(N)N
Response given: inactive

Challenge: Recorded test call requested for Oc1c(Cl)cc(C(c2cc(Cl)c(O)c(Cl)c2)C(c2cc(Cl)c(O)c(Cl)c2)c2cc(Cl)c(O)c(Cl)c2)cc1Cl
Response given: inactive

Challenge: Recorded test call requested for CNC(=O)[C@@H]1O[C@@H](n2cnc3c(N)ncnc32)[C@@H](O)[C@H]1O
Response given: inactive

Challenge: Recorded test call requested for O=C(O)c1c[nH]c2cc(OCc3ccccc3)ccc2c1=O
Response given: inactive

Challenge: Recorded test call requested for Cc1cc2nc([C@H](C)C(=O)c3ccc(Cl)cc3)c(=O)[nH]c2cc1C
Response given: inactive

Challenge: Recorded test call requested for NC(N)=N[C@H](CC(=O)O)c1ccccc1
Response given: inactive

Challenge: Recorded test call requested for COc1ccc(CNc2ncnc3ccc(-c4ccccc4C#N)cc23)c(OC)c1
Response given: inactive

Challenge: Recorded test call requested for O=[N+]([O-])c1ccc(NN=C2c3ccccc3Cc3ccccc32)c([N+](=O)[O-])c1
Response given: inactive

Challenge: Recorded test call requested for COc1ccc(CC[N@+]2(C)COc3cc4oc(=O)cc(C)c4cc3C2)cc1OC
Response given: inactive

Challenge: Recorded test call requested for C/C(=N\[N+](C)(C)C)c1ccc(C)c(C)c1
Response given: inactive

Challenge: Recorded test call requested for NCCSC[C@H](N)C(=O)O
Response given: inactive
